TARGET: Cyclin-dependent kinase 6 (Homo sapiens);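 further: mean percent inhibition of the kinase bound to its cyclin partner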
CONDITION_CONTEXT: at 1 µM
Each entry below carries its recorded inhibition.
The reply should consist of the numeric value with the unit placed after it.

O=C(Nc1n[nH]c2cc(-c3ccc(F)cc3)ccc12)C1CC1
24.6%

# input Requested read-out: inhibition. Entry: `N#Cc1c(NC(=O)CN2CCOCC2)sc2c1CCCC2`
# output 7.63%

# input Requested read-out: inhibition. Entry: `Fc1ccc(-c2cc(-c3c[nH]nc3-c3ccccn3)ccn2)cc1`
# output 2.29%

# input Requested read-out: inhibition. Entry: `N#Cc1c(NC(=O)c2ccc(F)cc2)sc2c1CCCC2`
# output -0.13%

# input Requested read-out: inhibition. Entry: `CN1CCC(n2cnc(-c3ccc(F)cc3)c2-c2ccnc(Nc3ccccc3)n2)CC1`
# output 0.2%

# input Requested read-out: inhibition. Entry: `COc1cccc(-n2ncc3c(N/N=C/c4ccc(F)cc4)ncnc32)c1`
# output 16.8%

# input Requested read-out: inhibition. Entry: `CCCN1CCC(c2ccc(Nc3nc(Nc4cc(F)ccc4C(N)=O)c4cc[nH]c4n3)c(OC)c2)CC1`
# output 17.9%

# input Requested read-out: inhibition. Entry: `COc1cc(Nc2nccc(Nc3ccc4c(C)n[nH]c4c3)n2)cc(OC)c1OC`
# output 3.31%

====

TARGET: Serine/threonine-protein kinase TBK1 (Homo sapiens) (UniProt Q9UHD2);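 further: values are mean inhibition of TBK1, screened as part of the GSK published kinase inhibitor set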
Sequence (Q9UHD2 whole entry): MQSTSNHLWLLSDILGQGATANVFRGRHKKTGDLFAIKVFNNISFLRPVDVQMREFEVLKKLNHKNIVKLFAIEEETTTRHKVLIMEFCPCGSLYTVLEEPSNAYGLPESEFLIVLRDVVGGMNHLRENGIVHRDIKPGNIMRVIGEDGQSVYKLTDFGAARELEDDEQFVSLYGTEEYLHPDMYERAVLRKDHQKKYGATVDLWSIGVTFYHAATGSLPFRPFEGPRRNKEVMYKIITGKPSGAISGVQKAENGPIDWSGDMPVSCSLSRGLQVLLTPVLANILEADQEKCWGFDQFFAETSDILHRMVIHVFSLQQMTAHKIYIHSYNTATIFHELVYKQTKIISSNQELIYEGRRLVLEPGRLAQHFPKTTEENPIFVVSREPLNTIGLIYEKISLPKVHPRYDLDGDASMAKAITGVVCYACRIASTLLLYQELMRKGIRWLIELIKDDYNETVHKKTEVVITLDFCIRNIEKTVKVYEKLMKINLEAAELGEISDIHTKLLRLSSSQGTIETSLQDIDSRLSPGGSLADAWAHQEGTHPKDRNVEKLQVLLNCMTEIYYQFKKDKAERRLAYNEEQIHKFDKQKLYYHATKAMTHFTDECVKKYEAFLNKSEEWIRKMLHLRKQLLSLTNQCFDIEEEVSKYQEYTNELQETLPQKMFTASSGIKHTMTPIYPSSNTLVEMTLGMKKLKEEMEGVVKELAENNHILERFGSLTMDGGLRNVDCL
CONDITION_CONTEXT: at 1 µM
REPORTED_METRIC: inhibition (%)
Expressed in %, but write only the number.

CCn1c(-c2nonc2N)nc2cnc(Oc3cccc(NC(=O)c4ccc(N(C)C)cc4)c3)cc21
6.31

# input Requested read-out: inhibition. Entry: `Cc1cccc(Nc2ncc(-c3ccccc3)o2)c1`
# output 7.09

# input Requested read-out: inhibition. Entry: `COc1cccc(-n2ncc3c(N/N=C/c4ccc(F)cc4)ncnc32)c1`
# output 6.85

# input Requested read-out: inhibition. Entry: `O=S(=O)(CCNCc1ccc(-c2ccc3ncnc(Nc4ccc(OCc5cccc(F)c5)c(Cl)c4)c3c2)o1)c1ccccc1`
# output 5.89

====

TARGET: Hepatocyte growth factor receptor (Homo sapiens);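 further: reported values are means of MET inhibition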
CONDITION_CONTEXT: at 0.1 µM
Each entry below carries its recorded inhibition.
Expressed in %, but write only the number.

Here's what some known entries look like.
CCn1c(-c2nonc2N)nc2c(C#CC(C)(C)O)nc(OC[C@H](N)c3ccccc3)cc21
6.32
CN1CCC(n2cnc(-c3ccc(F)cc3)c2-c2ccnc(Nc3ccccc3)n2)CC1
-0.26
COc1cc(N2CCN(C(C)C)CC2)ccc1Nc1nc(Nc2ccc(F)cc2C(N)=O)c2cc[nH]c2n1
7.18

Now take the following compound into account.
# input Requested read-out: inhibition. Entry: `CS(=O)(=O)CCNCc1ccc(-c2ccc3ncnc(Nc4ccc(OCc5ccccc5)c(C(F)(F)F)c4)c3c2)o1`
# output 0.49

====

TARGET: Serine/threonine-protein kinase D2 (Homo sapiens);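 further: mean value of PRKD2 inhibition, from the GSK PKIS screening panel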
Sequence (whole entry): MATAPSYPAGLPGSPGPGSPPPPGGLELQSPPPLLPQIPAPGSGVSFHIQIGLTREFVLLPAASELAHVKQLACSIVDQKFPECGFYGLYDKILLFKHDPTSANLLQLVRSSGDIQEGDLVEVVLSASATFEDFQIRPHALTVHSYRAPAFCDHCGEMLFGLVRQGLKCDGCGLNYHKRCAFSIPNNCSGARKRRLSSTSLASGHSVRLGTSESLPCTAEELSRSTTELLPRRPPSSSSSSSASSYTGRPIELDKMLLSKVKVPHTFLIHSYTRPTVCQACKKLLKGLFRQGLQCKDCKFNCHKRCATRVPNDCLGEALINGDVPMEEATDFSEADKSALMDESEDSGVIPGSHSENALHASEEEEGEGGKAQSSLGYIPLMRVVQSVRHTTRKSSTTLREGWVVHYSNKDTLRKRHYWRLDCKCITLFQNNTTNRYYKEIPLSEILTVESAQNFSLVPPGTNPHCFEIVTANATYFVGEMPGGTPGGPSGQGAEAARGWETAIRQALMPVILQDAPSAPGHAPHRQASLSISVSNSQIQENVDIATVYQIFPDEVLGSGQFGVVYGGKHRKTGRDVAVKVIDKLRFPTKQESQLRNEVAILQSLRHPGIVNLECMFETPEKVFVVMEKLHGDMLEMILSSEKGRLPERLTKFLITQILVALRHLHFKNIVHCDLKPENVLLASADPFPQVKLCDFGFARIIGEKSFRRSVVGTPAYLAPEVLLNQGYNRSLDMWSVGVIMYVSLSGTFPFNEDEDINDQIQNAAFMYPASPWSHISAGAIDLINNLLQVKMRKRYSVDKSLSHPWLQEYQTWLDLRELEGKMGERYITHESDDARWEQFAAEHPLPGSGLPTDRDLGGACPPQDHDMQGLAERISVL
CONDITION_CONTEXT: at 1 µM
Each entry below carries its recorded inhibition.
Expressed in %, but write only the number.

Here's what some known entries look like.
Clc1ccc(-c2nn3ncccc3c2-c2ccnc(Nc3ccccc3)n2)cc1
2.67
Cc1ccc2c(-c3ccnc(Nc4ccccc4)n3)c(-c3ccc(F)cc3)nn2n1
87

# input Requested read-out: inhibition. Entry: `CCc1nn2ncccc2c1-c1ccnc(NC2CC2)n1`
# output 3.14

# input Requested read-out: inhibition. Entry: `CNC(=O)c1cncc(/C=C/c2ccccc2Cl)c1`
# output -1.08
